test: gradient 5% acetonitrile 3 min, to 50% in 2 min, to 85% in 15 min, held 3 min, 100 µL/min; settings: column: Zorbax Extend-C18 2.1 x 50 mm; eluents: water / acetonitrile, 0.1% formic acid
measured.parameter: RP-LC retention time (s)

compound: Cc1ccc(N2CCC(NC(=O)Cc3ccccc3C)C2=O)cc1 (configuration not stated)
RP-LC retention time [s]: 869
//
compound: O=C(Nc1cccc(Cl)c1)C1CCN(C(=O)C2Sc3ccccc3NC2=O)CC1 (configuration not stated)
RP-LC retention time [s]: 837
//
compound: Cc1ccc(CN2CCC(CNC(=O)c3sc4ncccc4c3-n3cccc3)C2)cc1 (configuration not stated)
RP-LC retention time [s]: 707
//
compound: CCc1nc(-c2csc(S(=O)(=O)N3CCCC(C(=O)Nc4cccnc4)C3)c2)no1 (configuration not stated)
RP-LC retention time [s]: 678
//
compound: O=C(NCC(c1cccnc1)N1CCN(Cc2ccccc2)CC1)Nc1ccccc1Cl (configuration not stated)
RP-LC retention time [s]: 554
//
compound: Cc1noc(C)c1CN1CCC(NC(=O)c2cc3ccccc3[nH]2)CC1
RP-LC retention time [s]: 621

A. COc1cccc(C2Cn3nnc(-c4nc(-c5ccsc5)no4)c3CO2)c1 (configuration not stated)
B. CN(C)CCNC(=O)C1CCc2sc(C(=O)N3CCCC3)cc2C1 (configuration not stated)
Looking at A and B , which one comes out lower in RP-LC retention time terms? The response must carry the label of the picked entry.
B
(B: 660 s, A: 1070 s)

A. CCOC(=O)c1c(S(=O)(=O)N2CCC(C(=O)Nc3ccc(F)cc3F)CC2)c(C)n(CC)c1C
B. Cc1oc(-c2[nH]ncc2C(=O)N(C)C)cc1S(=O)(=O)N1CCN(CC(C)C)CC1
C. Cc1sc(-c2cc(C(F)(F)F)on2)cc1S(=O)(=O)NCCC1=CCCCC1
// ascending sort on recorded RP-LC retention time Write the labels out in the order the request specifies.
B, A, C

I. O=C(Nc1ccc(F)cc1F)N1CCC(CCNC(=O)C2(c3ccccc3)CC2)CC1
II. CCN1CCN(CCNC(=O)c2c(N3CCCC3=O)c3cc(OC)ccc3n2C)CC1
Looking at I and II , which one comes out lower in RP-LC retention time terms? The response must carry the label of the picked entry.
II

I. COc1ccc(OC)c(-c2ccc(=O)n(CCc3nc(-c4ccc(C)cc4)no3)n2)c1
II. CCN1C(=O)c2cccnc2Sc2cc(CNC(=O)C3CCN(C(C)=O)CC3)ccc21
Which shows the larger RP-LC retention time value: I or II ? The response must carry the label of the picked entry.
I
(I: 1020 s, II: 638 s)

I. O=S(=O)(Cc1ccccc1)N1CCC2(CCCCO2)CC1
II. CCCN(CCC)CCNC(=O)C1CCCN(c2ncnc3c2nc2n3CCCCC2)C1 (configuration not stated)
III. CCn1c(=O)c(N2CCCC(C(=O)N3CCN(c4cc(C)ccc4C)CC3)C2)nc2ccccc21 (configuration not stated)
Please list these compounds in decreasing order of RP-LC retention time. Write the labels out in the order the request specifies.
III, I, II
(III: 1380 s, I: 868 s, II: 599 s)

I. Cc1noc(C2(NC(=O)c3ccc(Br)cc3)CCCCC2)n1
II. COc1cc([C@@H]2c3cc4c(cc3[C@H](O)[C@@H](CO)[C@@H]2C(=O)N2CCOCC2)OCO4)cc(OC)c1OC
Which shows the larger RP-LC retention time value: I or II ? The response must carry the label of the picked entry.
I
(I: 924 s, II: 632 s)

1. CN1C(=O)c2cccnc2Sc2cc(C(=O)NCc3ccccc3Cl)ccc21
2. CCCc1ccc(S(=O)(=O)N2CCC3(CC2)C(=O)N(CC)c2ccccc23)cc1
Looking at 1 and 2 , which one comes out lower in RP-LC retention time terms? The response must carry the label of the picked entry.
1
(1: 806 s, 2: 1160 s)

P. CCc1nc2cc(-c3noc(-c4cccs4)n3)ccc2o1
Q. O=C(NCC1CCCO1)c1ncoc1-c1ccccc1C(=O)N1CCCCC1 (configuration not stated)
Which shows the larger RP-LC retention time value: P or Q ? The response must carry the label of the picked entry.
P

---

assay: gradient 5% acetonitrile 3 min, to 50% in 2 min, to 85% in 15 min, held 3 min, 100 µL/min; conditions: column: Zorbax Extend-C18 2.1 x 50 mm; eluents: water / acetonitrile, 0.1% formic acid
measured.parameter: RP-LC retention time (s)

molecule: CCN(CC)S(=O)(=O)c1ccc2c(c1)CC(C(=O)NC1CCCCCCC1)N2C(C)=O (centres undefined)
RP-LC retention time, s: 959
//
molecule: Cc1cc2nn(CC(=O)N(C)c3ccccc3)c(=O)n2c(Nc2ccc(F)cc2)n1
RP-LC retention time, s: 1010
//
molecule: CC1CCN(S(=O)(=O)c2ccc3nn(Cc4ccc(Cl)cc4)c(=O)n3c2)CC1
RP-LC retention time, s: 819
//
molecule: Cc1ccc(C(=O)NCc2ccc(-n3ccnc3)cc2)s1
RP-LC retention time, s: 602
//
molecule: COc1ccccc1CCC(=O)N(C)C[C@@]12CCC[C@H]1N(C)C(=O)CC2
RP-LC retention time, s: 776
//
molecule: CCN1CCN(C(=O)Cn2nc(C)c3sc(-c4ccccc4)nc3c2=O)CC1
RP-LC retention time, s: 604
//
molecule: c1ccc(CC2CCN(Cc3nc(-c4ccc(N5CCOCC5)nc4)no3)CC2)cc1
RP-LC retention time, s: 716
//
molecule: CCOc1ccc(CNC(=O)Cc2csc3nc(-c4ccc(C)c(C)c4)cn23)cc1OC
RP-LC retention time, s: 810
//
molecule: O=C(O)c1ccc(S(=O)(=O)N2CCc3ccccc3C2)cc1
RP-LC retention time, s: 773
//
molecule: Cc1nn(-c2ccc(-c3ccccc3)nn2)c(C)c1S(=O)(=O)N1CCN(c2ccccn2)CC1
RP-LC retention time, s: 776
//
molecule: Cc1ccccc1CNC(=O)CCc1c(-c2ccc(Br)cc2)nc2ccccn12
RP-LC retention time, s: 722
//
molecule: CC(NC(=O)Nc1cccc(Br)c1)C(=O)N1CCc2ccccc21 (centres undefined)
RP-LC retention time, s: 950
//
molecule: COc1ccccc1-c1nc(Cn2nnc(-c3nc(-c4ccc5c(c4)OCO5)no3)c2C)c(C)o1
RP-LC retention time, s: 700
//
molecule: CCOc1ccccc1NC(=O)N1CCCC(Cn2c(C3CC3)nc3cccnc32)C1 (centres undefined)
RP-LC retention time, s: 725
//
molecule: Cn1nccc1C(=O)N1CCc2c(c(CO)nn2Cc2ccccc2)C1
RP-LC retention time, s: 630
//
molecule: CNC(=O)N1CCCC(c2cccc(C(=O)N3CCN(c4ccc(Cl)cc4)CC3)c2)C1 (centres undefined)
RP-LC retention time, s: 864
//
molecule: CC(=O)N1CCCN(C2=NS(=O)(=O)C(c3ccc(Cl)cc3)=C2C)CC1
RP-LC retention time, s: 718
//
molecule: CCCn1cnc2cc(CNC(=O)CCc3ccccc3)ccc21
RP-LC retention time, s: 640
//
molecule: COc1ccc(NC(=O)N2CCc3nc(-c4ccccc4)ncc3C2)cc1OC
RP-LC retention time, s: 804

---

assay: gradient 5% acetonitrile 3 min, to 50% in 2 min, to 85% in 15 min, held 3 min, 100 µL/min; details: column: Zorbax Extend-C18 2.1 x 50 mm; eluents: water / acetonitrile, 0.1% formic acid
measured.parameter: RP-LC retention time (s)

compound: COc1ccc(-n2nc(N3CCN(C(=O)CC4CCCC4)CC3)ccc2=O)cc1
measured.parameter: RP-LC retention time
value.measured: 800

compound: CC(C)n1cc(C2=CCN(S(=O)(=O)Cc3ccc(Cl)cc3)CC2)c2cccnc21
measured.parameter: RP-LC retention time
value.measured: 1130

compound: O=C(CSc1nccn1-c1cccc(Cl)c1)Nc1ccccc1F
measured.parameter: RP-LC retention time
value.measured: 841

compound: Cc1ccn2cc(-c3ccc(NC(=O)CCCc4ccccc4)cc3)nc2n1
measured.parameter: RP-LC retention time
value.measured: 694

compound: CCc1ccc(CNC(=O)Cn2ccc3c(=O)n(CC)c(=O)n(CC)c32)cc1
measured.parameter: RP-LC retention time
value.measured: 783

1. CCOc1nc2ccccc2nc1N1CCCC(C(=O)Nc2ccc(OC)cc2OC)C1 (centres undefined)
2. CCSc1nnc(NC(=O)CNC(=O)c2c[nH]c3ccccc23)s1
Which shows the larger RP-LC retention time value: 1 or 2 ? The response must carry the label of the picked entry.
1

---

assay: gradient 5% acetonitrile 3 min, to 50% in 2 min, to 85% in 15 min, held 3 min, 100 µL/min; conditions: column: Zorbax Extend-C18 2.1 x 50 mm; eluents: water / acetonitrile, 0.1% formic acid
measured.parameter: RP-LC retention time (s)

molecule: CCc1ccc(NC(=O)c2cn(C)nc2S(=O)(=O)N2CCSCC2)cc1
RP-LC retention time, s: 1040
//
molecule: O=C(Nc1ccc(OCc2nnc(-c3ccccc3)o2)cc1)c1ccsc1
RP-LC retention time, s: 864
//
molecule: Cc1ccc2c(c1)N(Cc1cc(F)cc(F)c1)N=C(C(=O)N1CCCC1)S2(=O)=O
RP-LC retention time, s: 900
//
molecule: Cc1ccc(C)c(CNS(=O)(=O)c2c(C)sc(C)c2-c2n[nH]c(C)c2C)c1
RP-LC retention time, s: 1150

1. COc1ccc(-c2ccc(=O)n(Cc3nc(-c4cccc(Cl)c4)no3)n2)cc1OC
2. Cc1c(CN2CCN(C(=O)[C@H](C)O)CC2)sc2c(N3CCOCC3)nc(-c3cnc(N)nc3)nc12
Looking at 1 and 2 , which one comes out lower in RP-LC retention time terms? The response must carry the label of the picked entry.
2
(2: 612 s, 1: 976 s)

Attribution: the METLIN SMRT retention time set (Domingo-Almenara et al. 2019)
